- Protocol Description: NCI Yeast Anticancer Drug Screen. Data for the bub3 strain (AID 167)
- Setup Conditions: S. cerevisiae bub3 mutant strain, at 50.0 µM, active compounds read high
The panel holds about 79,000 compounds, 15% with a hit somewhere; the sample as a whole holds those more often.

{"columns": ["Compound", "growth inhibition, %"],
 "data": [
  ["CCCCCCCCCCCC(=O)N(CCCCCCCCCCC(=O)O)CC(O)C(O)C(OC1OC(CO)C(O)C(O)C1O)C(O)CO (stereo not drawn)", 86.3],
  ["CCC(=O)/C=C/c1cc(OC)c(OC)c(OC)c1", -9.1],
  ["CCOC(=O)/C(C#N)=C/c1c(-c2ccccc2)nn2ccccc12", -7.7],
  ["BrCCCCCCCCCBr", -16.6],
  ["O=C(Nc1nc2ccccc2n1Cc1ccc(Cl)cc1)C(=O)NC12CC3CC(CC(C3)C1)C2", 6.8],
  ["CC(=O)/C(N=Nc1ccccc1SCCC#N)=C(\\C)O", 9.15],
  ["CC(C)C1OC2(CCCCC2)OCC1(C)C (stereo not drawn)", 21.1],
  ["NC(CCCCCCCCCCP(=O)(O)O)C(=O)O (stereo not drawn)", -19.6],
  ["CCCCCN(C=O)c1ccccc1", -7.4],
  ["COc1ccc2c(c1)-c1cc(OC)ccc1C2c1ccccc1", 5.15],
  ["Cc1ccc(S(=O)(=O)Nc2ccc3nc(C)oc3c2)cc1", 45],
  ["Clc1ccc(OCc2nnc3n2N=C(c2ccccc2)CS3)cc1", 23.5],
  ["Cc1cc(C)[n+](C)c(/C=C\\c2ccc(Cl)cc2)n1", -4.45],
  ["CC(C)c1sc([S-])n[n+]1-c1ccccc1", -4.3],
  ["CCCCSC(CC(O)C(O)COC(=O)c1ccc([N+](=O)[O-])cc1)SCCCC (stereo not drawn)", -4.85],
  ["Cc1ccc(C)c(NC(=O)Oc2cc(C)c(Cl)cc2C(C)C)c1", 98.5],
  ["Cc1cccc(C)c1NC(=O)Nc1ccc(C(=O)O)cc1", 22.6],
  ["CC(C)(CNC(=O)C12CC3CC(CC(C3)C1)C2)NC(=O)C12CC3CC(CC(C3)C1)C2", 0.85],
  ["COc1cccc(-c2ccccc2)c1", 14.6],
  ["CC1(C)OC2OC(C3CC3)C(O)C2O1 (stereo not drawn)", 11.9],
  ["Cc1cc(C)c2ccc(NN=O)nc2n1", 13.2],
  ["NC(CS)=NCc1ccccc1", 8.85],
  ["O=C(NCCc1ccccc1)[C@H]1CCCC[C@@H]1CCO", -39.8],
  ["COCC(O)CC#N (stereo not drawn)", 9.65],
  ["COCCCNC(=O)C1C(=O)C(=O)N(CCCOC)C1=O (stereo not drawn)", -5],
  ["CC(=O)C(C(C)=O)C(c1ccccn1)C(C(C)=O)C(C)=O", 6.8],
  ["CCN(CC)c1ccc(N)cc1", -3.1],
  ["Nc1cccc2ccc(S(=O)(=O)O)cc12", -9.9],
  ["COc1ccc(CCNC(=S)NCCc2ccc(OC)c(OC)c2)cc1OC", 34.5],
  ["COc1ccc(C2SC(N)=Nc3c2c(C)nn3C(=O)c2ccccc2O)cc1 (stereo not drawn)", 49.1],
  ["Cc1cnc2cc(Cl)ccc2c1SCC(=O)O", -36.6],
  ["CN(C)C=NCC(O)c1ccccc1 (stereo not drawn)", -21.2],
  ["CC(CC(=O)O)(CC(=O)O)c1ccccc1", -7.05],
  ["COc1cc2c(cc1OC)C(=O)C1(C2)[C@H](c2ccccc2)C2C(=O)c3cc(OC)c(OC)cc3C2[C@H]1c1ccccc1 (stereo partly drawn)", 46],
  ["Cc1ccc(S(=O)(=O)N/N=C/c2oc(-c3ccccc3Cl)c(-c3ccccc3Cl)c2[N+](=O)[O-])cc1", 41.5],
  ["COc1ccc(C=Nc2c(N)[nH]c(=S)[nH]c2=O)cc1", -27.8],
  ["CC(=O)C(C(C)=O)C(c1cccnc1)C(C(C)=O)C(C)=O", 25.3],
  ["NCCCCCC(CCN)SCC1OC(n2cnc3c(N)ncnc32)C(O)C1O (stereo not drawn)", -0.95],
  ["CC(=O)Nc1ccc2c(c1)C(=O)c1ccccc1-2", -16.8],
  ["O=C(O)C(c1ccccc1)C(F)(F)F (stereo not drawn)", -2.1],
  ["COc1ccc(C2=C/C(=C/c3ccc(N(CCC#N)CCC#N)cc3)C(=O)O2)cc1", -3.05],
  ["O=C(O)c1ccncc1S(=O)(=O)O", -23.5],
  ["COc1cc2c(c(OC)c1OC)-c1c(cc3c(c1OC)OCO3)C1OC2C(C)C1C (stereo not drawn) (tested in a mixture with another compound)", -20.6],
  ["Cc1ccc(/C=C/C(=O)C(C)(C)CN2CCCCC2)cc1", 10],
  ["C/C([O-])=N\\[N+](C)(C)Cc1ccccc1", -6.6],
  ["CN(C)c1ccc(Cc2c[nH]c3ccccc3c2=O)cc1", 25.1],
  ["Cc1ccc(-n2cnc3c(N/N=C4\\SCC(=O)N4c4ccccc4)ncnc32)cc1", 49.2],
  ["CCCCCC(=O)/C=C/Sc1n[nH]c(=O)[nH]c1=O", 55]
]}
